molecular target: GDH1 from bovine liver (glutamate dehydrogenase 1) (Bos taurus, UniProt P00366)
Sequence (P00366 58-558): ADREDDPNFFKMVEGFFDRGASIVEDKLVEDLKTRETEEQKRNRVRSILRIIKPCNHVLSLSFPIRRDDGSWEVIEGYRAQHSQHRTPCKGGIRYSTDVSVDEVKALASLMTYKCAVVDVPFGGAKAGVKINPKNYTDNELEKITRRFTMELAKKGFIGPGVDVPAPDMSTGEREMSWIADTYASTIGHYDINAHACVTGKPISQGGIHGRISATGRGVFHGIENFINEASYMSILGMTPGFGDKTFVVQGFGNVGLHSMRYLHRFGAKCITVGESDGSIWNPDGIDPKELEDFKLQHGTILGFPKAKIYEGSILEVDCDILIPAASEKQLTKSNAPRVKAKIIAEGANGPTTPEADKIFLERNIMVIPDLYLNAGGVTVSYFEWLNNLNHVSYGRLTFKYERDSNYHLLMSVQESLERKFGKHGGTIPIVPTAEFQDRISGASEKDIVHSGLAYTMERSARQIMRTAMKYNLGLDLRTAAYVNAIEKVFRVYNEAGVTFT
METRIC NAME: IC50

O=C(O[C@@H]1Cc2c(O)cc(O)cc2O[C@@H]1c1cc(O)c(O)c(O)c1)c1cc(O)c(O)c(O)c1 [EGCG, Epigallocatechin gallate] has a reported IC50 of ~2 µM

---

molecular target: UniProt P00366
METRIC NAME: Ki (µM)
Express your answer in µM, writing the number without its unit.

The observed Ki for O=c1c(O)c(-c2ccc(O)c(O)c2)oc2cc(O)cc(O)c12 [quercetin] when tested with UniProt P00366 stands at 9.2
